molecular target: KRAS G13D (Homo sapiens (Human), UniProt P01116, G13D); assay: SOS-catalyzed nucleotide exchange assay (GNE), KRAS G13D; settings: TR-FRET, 60 min preincubation
Sequence (P01116 other isoform, or with tags, fused parts or gaps G13D (already in the parent)): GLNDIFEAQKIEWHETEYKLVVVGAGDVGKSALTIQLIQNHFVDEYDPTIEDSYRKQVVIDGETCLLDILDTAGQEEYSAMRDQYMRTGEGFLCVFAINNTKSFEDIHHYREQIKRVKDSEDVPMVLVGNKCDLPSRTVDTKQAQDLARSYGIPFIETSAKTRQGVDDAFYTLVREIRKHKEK
I'd appreciate it if you marked entries MET when IC50 is lower than 2 nM and NOT MET when it is not.

# COMPOUND_SMILES, CATEGORY
rows = [
    ("F/C=C1/CN2CCC[C@@]2(COc2nc3c4c(nc(-c5c(C6CC6)c(Cl)cc6[nH]ncc56)c(F)c4n2)OC[C@@H]2COCCCN32)C1", "NOT MET"),
    ("CCc1c(F)ccc2cc3[nH]nc(C)c3c(-c3nc4c5c(nc(OC[C@@]67CCCN6C[C@H](F)C7)nc5c3F)N3CCCOC[C@H]3CO4)c12", "MET"),
    ("CCc1c(F)ccc2cc3[nH]nc(C)c3c(-c3nc4c5c(nc(OC[C@@]67CCCN6C/C(=C\\F)C7)nc5c3F)N3CCCOC[C@H]3CO4)c12", "NOT MET"),
    ("F/C=C1\\CN2CCC[C@@]2(COc2nc3c4c(nc(-c5c(C6(F)CC6)c(Cl)cc6[nH]ncc56)c(F)c4n2)OC[C@@H]2COCCCN32)C1", "MET"),
    ("CCc1c(F)ccc2cc3[nH]ncc3c(-c3nc4c5c(nc(OC[C@@]67CCCN6C/C(=C\\F)C7)nc5c3F)N3CCCOC[C@H]3CO4)c12", "MET"),
    ("CCc1c(F)ccc2cc3[nH]ncc3c(-c3nc4c5c(nc(OC[C@@]67CCCN6C[C@H](F)C7)nc5c3F)N3CCCOC[C@H]3CO4)c12", "MET"),
]

* * *

biological target: KRAS G12A (Homo sapiens (Human), UniProt P01116, G12A); test: SOS-catalyzed nucleotide exchange assay (GNE), KRAS G12A; settings: TR-FRET, 60 min preincubation
Sequence (P01116 other isoform, or with tags, fused parts or gaps G12A (already in the parent)): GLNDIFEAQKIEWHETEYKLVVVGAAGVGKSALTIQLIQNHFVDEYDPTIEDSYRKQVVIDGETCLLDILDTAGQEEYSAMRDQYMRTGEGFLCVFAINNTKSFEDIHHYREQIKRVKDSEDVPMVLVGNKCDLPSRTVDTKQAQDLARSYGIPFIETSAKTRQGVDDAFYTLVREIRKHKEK
pIC50: −log10 of the molar value.

# COMPOUND, pIC50
data = [
    ("F/C=C1/CN2CCC[C@@]2(COc2nc3c4c(nc(-c5c(C6CC6)c(Cl)cc6[nH]ncc56)c(F)c4n2)OC[C@@H]2COCCCN32)C1 [Ex-1]", "> 9.16"),
    ("CCc1c(F)ccc2cc3[nH]ncc3c(-c3nc4c5c(nc(OC[C@@]67CCCN6C/C(=C\\F)C7)nc5c3F)N3CCCOC[C@H]3CO4)c12 [Ex-4]", "> 9.16"),
    ("F/C=C1\\CN2CCC[C@@]2(COc2nc3c4c(nc(-c5c(C6(F)CC6)c(Cl)cc6[nH]ncc56)c(F)c4n2)OC[C@@H]2COCCCN32)C1 [Ex-5]", 9.08),
]

* * *

# IC50 listing for each entry below
target: KRAS G12S (Homo sapiens (Human), UniProt P01116, G12S); test: SOS-catalyzed nucleotide exchange assay (GNE), KRAS G12S; assay type: biochemical; details: TR-FRET, 60 min preincubation
Sequence (P01116 other isoform, or with tags, fused parts or gaps G12S (already in the parent)): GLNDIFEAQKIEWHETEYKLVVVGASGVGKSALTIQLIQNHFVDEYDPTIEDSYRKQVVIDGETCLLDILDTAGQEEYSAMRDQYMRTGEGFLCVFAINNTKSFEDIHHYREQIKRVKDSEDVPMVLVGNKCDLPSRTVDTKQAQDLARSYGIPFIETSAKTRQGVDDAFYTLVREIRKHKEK

# COMPOUND, BOUND_TYPE, IC50 [nM]
data = [
    ("F/C=C1/CN2CCC[C@@]2(COc2nc3c4c(nc(-c5c(C6CC6)c(Cl)cc6[nH]ncc56)c(F)c4n2)OC[C@@H]2COCCCN32)C1 [Ex-1]", "<", 0.69),
    ("CCc1c(F)ccc2cc3[nH]nc(C)c3c(-c3nc4c5c(nc(OC[C@@]67CCCN6C[C@H](F)C7)nc5c3F)N3CCCOC[C@H]3CO4)c12 [Ex-6]", "=", 1.2),
    ("CCc1c(F)ccc2cc3[nH]ncc3c(-c3nc4c5c(nc(OC[C@@]67CCCN6C/C(=C\\F)C7)nc5c3F)N3CCCOC[C@H]3CO4)c12 [Ex-4]", "<", 0.69),
    ("F/C=C1\\CN2CCC[C@@]2(COc2nc3c4c(nc(-c5c(C6(F)CC6)c(Cl)cc6[nH]ncc56)c(F)c4n2)OC[C@@H]2COCCCN32)C1 [Ex-5]", "=", 0.77),
    ("CCc1c(F)ccc2cc3[nH]ncc3c(-c3nc4c5c(nc(OC[C@@]67CCCN6C[C@H](F)C7)nc5c3F)N3CCCOC[C@H]3CO4)c12 [Ex-2]", "<", 0.69),
    ("CCc1c(F)ccc2cc3[nH]nc(C)c3c(-c3nc4c5c(nc(OC[C@@]67CCCN6C/C(=C\\F)C7)nc5c3F)N3CCCOC[C@H]3CO4)c12 [Ex-7]", "=", 1.3),
]
